Target: Vasoactive intestinal polypeptide receptor 1 (Homo sapiens, UniProt P32241); also: in other assays of this panel Not Active means under 50% inhibition at 10 µM
Sequence (P32241 whole entry): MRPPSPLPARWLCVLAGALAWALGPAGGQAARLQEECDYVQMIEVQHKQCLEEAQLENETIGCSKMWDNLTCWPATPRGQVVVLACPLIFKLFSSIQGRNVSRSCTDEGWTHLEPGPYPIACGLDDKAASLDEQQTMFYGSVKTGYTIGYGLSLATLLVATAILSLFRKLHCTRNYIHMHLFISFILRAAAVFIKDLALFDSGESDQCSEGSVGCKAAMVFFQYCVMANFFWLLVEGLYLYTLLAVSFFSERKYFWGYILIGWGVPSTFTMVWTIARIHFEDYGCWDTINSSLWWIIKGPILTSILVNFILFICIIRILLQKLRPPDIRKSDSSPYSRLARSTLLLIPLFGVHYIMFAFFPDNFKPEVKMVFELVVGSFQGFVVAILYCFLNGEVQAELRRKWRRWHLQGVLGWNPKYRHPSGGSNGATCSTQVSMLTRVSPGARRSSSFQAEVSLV
Assay type: cell membranes, Membrane
Details: ht-29
assay_endpoint: IC50

substance=CISPLATIN target_desc="Vasoactive intestinal polypeptide receptor 1 (Homo sapiens, UniProt P32241)" reported_value="Not Active"
substance=OXALIPLATIN target_desc="Vasoactive intestinal polypeptide receptor 1 (Homo sapiens, UniProt P32241)" reported_value="Not Active"
substance="GOLD SODIUM THIOMALATE" target_desc="Vasoactive intestinal polypeptide receptor 1 (Homo sapiens, UniProt P32241)" reported_value="Not Active"
substance=CARBOPLATIN target_desc="Vasoactive intestinal polypeptide receptor 1 (Homo sapiens, UniProt P32241)" reported_value="Not Active"
substance=IVERMECTIN target_desc="Vasoactive intestinal polypeptide receptor 1 (Homo sapiens, UniProt P32241)" reported_value="Not Active"
